The compounds listed here are annotated with their SALL4 Ymin.
Molecular target: SALL4 (Homo sapiens, UniProt Q96SW2+Q9UJQ4)
Construct: endogenous in cells; host or cells: NCCIT (HiBiT knock-in)
Sequence (Q9UJQ4 whole entry): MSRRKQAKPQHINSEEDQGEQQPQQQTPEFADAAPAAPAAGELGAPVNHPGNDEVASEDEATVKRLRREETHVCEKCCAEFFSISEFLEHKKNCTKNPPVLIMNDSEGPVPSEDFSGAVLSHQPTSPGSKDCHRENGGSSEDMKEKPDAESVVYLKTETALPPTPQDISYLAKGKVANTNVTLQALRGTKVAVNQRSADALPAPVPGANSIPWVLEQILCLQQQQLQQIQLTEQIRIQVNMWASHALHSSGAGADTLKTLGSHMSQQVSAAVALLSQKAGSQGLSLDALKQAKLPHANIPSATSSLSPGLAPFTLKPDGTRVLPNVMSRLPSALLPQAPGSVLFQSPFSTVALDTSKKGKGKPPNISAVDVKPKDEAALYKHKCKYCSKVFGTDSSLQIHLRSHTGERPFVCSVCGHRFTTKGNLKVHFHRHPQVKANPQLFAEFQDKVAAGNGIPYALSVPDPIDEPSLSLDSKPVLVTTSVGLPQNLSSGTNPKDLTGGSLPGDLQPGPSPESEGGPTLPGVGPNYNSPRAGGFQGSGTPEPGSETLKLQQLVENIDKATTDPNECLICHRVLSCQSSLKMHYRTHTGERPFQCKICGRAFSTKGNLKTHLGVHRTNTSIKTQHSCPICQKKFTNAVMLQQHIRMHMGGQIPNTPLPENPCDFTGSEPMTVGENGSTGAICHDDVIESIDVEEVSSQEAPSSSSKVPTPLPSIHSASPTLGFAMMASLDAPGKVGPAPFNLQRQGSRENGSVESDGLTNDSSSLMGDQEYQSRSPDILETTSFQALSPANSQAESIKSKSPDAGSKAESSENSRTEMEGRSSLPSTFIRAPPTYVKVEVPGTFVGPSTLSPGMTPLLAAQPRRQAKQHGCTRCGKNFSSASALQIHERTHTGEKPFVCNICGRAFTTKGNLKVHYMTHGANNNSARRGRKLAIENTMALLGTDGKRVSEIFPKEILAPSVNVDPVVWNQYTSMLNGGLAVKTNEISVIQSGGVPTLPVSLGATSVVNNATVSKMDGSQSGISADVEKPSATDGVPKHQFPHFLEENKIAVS
Sequence (Q96SW2 whole entry): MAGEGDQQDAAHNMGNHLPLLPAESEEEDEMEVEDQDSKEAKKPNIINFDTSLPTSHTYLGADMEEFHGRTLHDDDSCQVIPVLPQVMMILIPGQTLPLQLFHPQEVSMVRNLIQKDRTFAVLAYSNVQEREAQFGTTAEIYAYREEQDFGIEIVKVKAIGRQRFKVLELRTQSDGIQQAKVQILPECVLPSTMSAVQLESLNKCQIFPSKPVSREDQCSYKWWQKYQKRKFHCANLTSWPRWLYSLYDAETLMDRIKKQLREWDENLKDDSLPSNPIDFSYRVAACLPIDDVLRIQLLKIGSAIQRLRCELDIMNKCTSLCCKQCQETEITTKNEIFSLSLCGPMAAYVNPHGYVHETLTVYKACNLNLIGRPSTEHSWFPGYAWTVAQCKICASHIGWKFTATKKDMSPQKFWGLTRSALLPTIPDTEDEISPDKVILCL
Sequence (Q16531 whole entry partner): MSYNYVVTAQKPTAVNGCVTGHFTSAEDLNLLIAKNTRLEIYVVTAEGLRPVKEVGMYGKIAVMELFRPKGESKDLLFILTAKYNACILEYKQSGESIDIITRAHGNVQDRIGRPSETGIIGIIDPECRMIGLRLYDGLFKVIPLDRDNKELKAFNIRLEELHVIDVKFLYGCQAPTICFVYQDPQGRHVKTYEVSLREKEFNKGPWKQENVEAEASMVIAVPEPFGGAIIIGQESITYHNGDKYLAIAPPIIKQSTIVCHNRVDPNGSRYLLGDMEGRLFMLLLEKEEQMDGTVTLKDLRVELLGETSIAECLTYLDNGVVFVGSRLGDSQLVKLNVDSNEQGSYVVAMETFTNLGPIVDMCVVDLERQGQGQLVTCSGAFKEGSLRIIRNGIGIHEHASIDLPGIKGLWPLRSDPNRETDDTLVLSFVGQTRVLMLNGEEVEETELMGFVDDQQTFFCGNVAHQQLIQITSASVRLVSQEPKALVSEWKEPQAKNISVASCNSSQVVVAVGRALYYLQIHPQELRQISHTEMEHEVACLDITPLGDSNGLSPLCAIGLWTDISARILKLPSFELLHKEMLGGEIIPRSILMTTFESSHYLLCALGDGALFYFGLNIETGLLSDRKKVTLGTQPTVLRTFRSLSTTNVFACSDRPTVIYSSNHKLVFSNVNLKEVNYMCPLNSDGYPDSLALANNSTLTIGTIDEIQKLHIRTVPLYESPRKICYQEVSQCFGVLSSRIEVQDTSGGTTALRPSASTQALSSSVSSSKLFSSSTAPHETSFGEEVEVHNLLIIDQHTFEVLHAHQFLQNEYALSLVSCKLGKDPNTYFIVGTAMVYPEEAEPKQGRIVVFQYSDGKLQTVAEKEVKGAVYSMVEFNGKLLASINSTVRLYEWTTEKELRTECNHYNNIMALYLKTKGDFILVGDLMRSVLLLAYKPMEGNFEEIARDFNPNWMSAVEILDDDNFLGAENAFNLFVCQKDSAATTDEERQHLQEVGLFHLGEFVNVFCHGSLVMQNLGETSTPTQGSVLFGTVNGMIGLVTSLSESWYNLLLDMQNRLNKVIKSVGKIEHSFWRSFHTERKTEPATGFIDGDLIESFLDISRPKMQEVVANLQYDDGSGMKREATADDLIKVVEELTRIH
Assay: HiBiT degradation assay, NCCIT/SALL4-HiBiT KI cells
Type: cell-based
Settings: depth of degradation (100% = no reduction, 0% = complete degradation), 2 hr, N ≥ 3
Hey, just the number and the unit after it is fine.

// worked examples, SALL4 Ymin included
O=C1CCC(N2Cc3ccc([C@H]4C[C@@]4(C(=O)OCC(Cl)(Cl)Cl)c4ccc(Br)cc4)cc3C2=O)C(=O)N1 (stereo partly drawn) [Compound 17b] | 96 ± 3.1%
O=C1CCC(N2C(=O)c3cccc(C4=C[C@@]4(C(=O)OCC(Cl)(Cl)Cl)c4ccc(Br)cc4)c3C2=O)C(=O)N1 (stereo partly drawn) [Compound 20b] | 57 ±7.7%
O=C1CCC(N2Cc3cc(C4=C[C@]4(C(=O)OCC(Cl)(Cl)Cl)c4ccc(Br)cc4)ccc3C2=O)C(=O)N1 (stereo partly drawn) [Compound 21a] | 89 ± 4.2%
O=C1CCC(N2C(=O)c3cccc([C@@H]4C[C@]4(C(=O)OCC(Cl)(Cl)Cl)c4ccc(Br)cc4)c3C2=O)C(=O)N1 (stereo partly drawn) [Compound 14a] | 91 ± 8.0%
O=C1CCC(N2Cc3ccc([C@@H]4C[C@]4(C(=O)OCC(Cl)(Cl)Cl)c4ccc(Br)cc4)cc3C2=O)C(=O)N1 (stereo partly drawn) [Compound 17a] | 97 ± 2.2%

Answer with reported SALL4 Ymin of O=C1CCC(N2Cc3cccc(C4=C[C@]4(C(=O)OCC(Cl)(Cl)Cl)c4ccc(Br)cc4)c3C2=O)C(=O)N1 (stereo partly drawn) [Compound 24a] 95 ± 5.0%
